# assay_remarks: Oral bioavailability in dog
# Assay type: ADME, organism-based, Canis lupus familiaris
# test_settings: in vivo
measurement_type: bioavailability
Give the figure together with its unit, number first.

The recorded bioavailability for C[C@@H]1CN(c2ccc3c(n2)NC(=O)CO3)[C@H](c2ccccc2)CO1 is 65%

----------
# Tested on: MDR1 (P-gp)
# assay_remarks: Apparent permeability across basolateral to apical side in MDCK cells expressing human MDR1
# Format: ADME, cell-based, Canis lupus familiaris
# test_settings: dog
measurement_type: Papp B→A (×10⁻⁶ cm/s)
Report the figure in ×10⁻⁶ cm/s without appending any unit label.

The recorded Papp B→A for C[C@@H]1CN(c2ccc3c(n2)NC(=O)CO3)[C@H](c2ccccc2)CO1 is 24.7

----------
# assay_remarks: Thermodynamic solubility of the compound in phosphate buffered saline at pH 6.5
# Format: physicochemical
# test_settings: read-out: Therm_solubility
measurement_type: solubility thermodynamic (µM)
Report the figure in µM without appending any unit label.

The recorded solubility thermodynamic for C[C@@H]1CN(c2ccc3c(n2)NC(=O)CO3)[C@H](c2ccccc2)CO1 is 17

----------
Known inhibition at 3 µM of a selection of compounds
# system_name: CYP2D6 (Homo sapiens, UniProt P10635)
# Sequence (P10635 whole entry): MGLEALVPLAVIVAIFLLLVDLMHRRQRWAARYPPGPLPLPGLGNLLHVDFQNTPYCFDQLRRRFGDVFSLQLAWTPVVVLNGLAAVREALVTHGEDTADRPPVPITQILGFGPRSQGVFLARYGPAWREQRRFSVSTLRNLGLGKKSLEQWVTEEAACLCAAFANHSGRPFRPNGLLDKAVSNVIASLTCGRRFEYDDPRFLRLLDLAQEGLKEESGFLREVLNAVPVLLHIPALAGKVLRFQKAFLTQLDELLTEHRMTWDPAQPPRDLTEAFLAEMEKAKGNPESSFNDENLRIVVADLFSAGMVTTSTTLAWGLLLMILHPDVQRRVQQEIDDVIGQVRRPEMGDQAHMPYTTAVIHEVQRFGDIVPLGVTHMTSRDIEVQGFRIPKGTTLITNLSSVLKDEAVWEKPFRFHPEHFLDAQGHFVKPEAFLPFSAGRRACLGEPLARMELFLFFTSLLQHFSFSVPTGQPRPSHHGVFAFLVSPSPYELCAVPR
# assay_remarks: Inhibition of CYP2D6 (unknown origin) at 3 uM
# Format: ADME

C[C@@H]1CN(c2ccc3c(n2)NC(=O)CO3)[C@H](c2ccccc2)CO1 = < 20%

Note: attention shifts to another entry.
Case O=C1COc2ccc(N3CCOC[C@H]3c3ccccc3)cc2N1 , CYP2D6 (Homo sapiens, UniProt P10635), inhibition at 3 µM recorded as < 10%

----------
# system_name: UniProtKB P08684
# Sequence (P08684 whole entry): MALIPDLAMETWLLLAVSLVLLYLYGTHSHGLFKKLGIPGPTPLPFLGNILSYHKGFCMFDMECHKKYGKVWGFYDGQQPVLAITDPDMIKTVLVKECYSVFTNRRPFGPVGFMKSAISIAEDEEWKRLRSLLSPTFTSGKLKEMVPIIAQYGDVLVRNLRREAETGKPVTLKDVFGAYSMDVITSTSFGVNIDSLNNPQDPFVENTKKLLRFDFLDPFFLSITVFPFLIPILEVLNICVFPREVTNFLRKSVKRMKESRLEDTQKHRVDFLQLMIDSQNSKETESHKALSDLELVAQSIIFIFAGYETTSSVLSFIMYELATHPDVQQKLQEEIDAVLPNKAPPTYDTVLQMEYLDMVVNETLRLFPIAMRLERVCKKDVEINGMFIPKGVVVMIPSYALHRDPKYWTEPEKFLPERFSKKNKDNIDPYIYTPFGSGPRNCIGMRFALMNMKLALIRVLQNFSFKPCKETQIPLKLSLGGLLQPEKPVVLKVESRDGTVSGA
# assay_remarks: Inhibition of CYP3A4 (unknown origin) at 3 uM
# Format: ADME
measurement_type: inhibition at 3 µM

O=C1COc2ccc(N3CCOC[C@H]3c3ccccc3)cc2N1 = < 10%

Note: attention shifts to another entry.
The recorded inhibition at 3 µM for C[C@@H]1CN(c2ccc3c(n2)NC(=O)CO3)[C@H](c2ccccc2)CO1 is < 20%

----------
Known logD of a selection of compounds
# assay_remarks: Distribution coefficient, log D of the compound
# Assay type: physicochemical
# test_settings: octanol/water
Write no unit; give the number alone.

Recorded logD, per entry:
C[C@@H]1CN(c2ccc3c(n2)NC(=O)CO3)[C@H](c2ccccc2F)CO1 = 3.1
C[C@@H]1CN(c2ccc3c(n2)NC(=O)CO3)[C@H](c2cccc(F)c2)CO1 = 3.1
C[C@@H]1CN(c2ccc3c(n2)NC(=O)CO3)[C@H](c2ccccc2)CO1 = 2.8
C[C@@H]1CN(c2ncc3c(n2)NC(=O)CO3)[C@H](c2ccccc2)CO1 = 2.7

Note: attention shifts to another entry.
The recorded logD for C[C@@H]1CN(c2cnc3c(c2)NC(=O)CO3)[C@H](c2ccccc2)CO1 is 1.9

----------
# system_name: Progesterone receptor (Homo sapiens)
# Sequence (P06401 whole entry, the tested form may be a part): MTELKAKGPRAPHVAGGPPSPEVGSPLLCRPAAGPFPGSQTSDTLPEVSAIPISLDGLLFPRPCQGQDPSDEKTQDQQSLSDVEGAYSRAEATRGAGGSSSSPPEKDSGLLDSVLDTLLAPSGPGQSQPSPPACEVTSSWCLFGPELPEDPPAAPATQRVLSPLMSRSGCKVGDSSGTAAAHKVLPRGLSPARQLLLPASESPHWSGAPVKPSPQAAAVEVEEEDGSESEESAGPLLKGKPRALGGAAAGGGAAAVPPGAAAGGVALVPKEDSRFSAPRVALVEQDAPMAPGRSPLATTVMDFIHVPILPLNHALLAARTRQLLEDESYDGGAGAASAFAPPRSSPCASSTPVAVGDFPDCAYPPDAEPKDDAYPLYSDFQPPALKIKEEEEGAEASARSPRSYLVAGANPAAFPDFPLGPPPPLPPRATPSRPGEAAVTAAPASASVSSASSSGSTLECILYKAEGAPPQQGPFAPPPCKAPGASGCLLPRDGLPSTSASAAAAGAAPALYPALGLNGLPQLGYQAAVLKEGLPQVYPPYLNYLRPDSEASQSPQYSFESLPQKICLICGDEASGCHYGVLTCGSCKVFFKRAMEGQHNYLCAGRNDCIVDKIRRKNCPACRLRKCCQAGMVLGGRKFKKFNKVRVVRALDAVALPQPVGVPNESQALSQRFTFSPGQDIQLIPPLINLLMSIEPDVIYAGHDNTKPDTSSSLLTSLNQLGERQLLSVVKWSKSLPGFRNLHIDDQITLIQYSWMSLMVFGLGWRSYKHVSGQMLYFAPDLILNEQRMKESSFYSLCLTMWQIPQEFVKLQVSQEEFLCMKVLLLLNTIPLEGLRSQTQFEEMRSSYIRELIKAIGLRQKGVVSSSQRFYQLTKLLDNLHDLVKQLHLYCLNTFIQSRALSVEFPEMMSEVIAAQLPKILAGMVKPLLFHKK
# assay_remarks: Antagonist activity at PR (unknown origin) by Gal4-based cellular assay
pIC50: −log10 of the molar value.
measurement_type: pIC50

O=C1COc2ccc(N3CCOC[C@H]3c3ccccc3)cc2N1 = < 5.00

The recorded pIC50 for C[C@@H]1CN(c2ccc3c(n2)NC(=O)CO3)[C@H](c2ccccc2)CO1 is < 5.00

----------
# assay_remarks: Volume of distribution at steady state in dog
# Assay type: ADME, Canis lupus familiaris
# test_settings: in vivo, read-out: Vdss
measurement_type: Vd
Give the figure together with its unit, number first.

The recorded Vd for C[C@@H]1CN(c2ccc3c(n2)NC(=O)CO3)[C@H](c2ccccc2)CO1 is 2.37 L/kg

----------
# system_name: CYP1A2 (Homo sapiens, UniProt P05177)
# Sequence (P05177 whole entry): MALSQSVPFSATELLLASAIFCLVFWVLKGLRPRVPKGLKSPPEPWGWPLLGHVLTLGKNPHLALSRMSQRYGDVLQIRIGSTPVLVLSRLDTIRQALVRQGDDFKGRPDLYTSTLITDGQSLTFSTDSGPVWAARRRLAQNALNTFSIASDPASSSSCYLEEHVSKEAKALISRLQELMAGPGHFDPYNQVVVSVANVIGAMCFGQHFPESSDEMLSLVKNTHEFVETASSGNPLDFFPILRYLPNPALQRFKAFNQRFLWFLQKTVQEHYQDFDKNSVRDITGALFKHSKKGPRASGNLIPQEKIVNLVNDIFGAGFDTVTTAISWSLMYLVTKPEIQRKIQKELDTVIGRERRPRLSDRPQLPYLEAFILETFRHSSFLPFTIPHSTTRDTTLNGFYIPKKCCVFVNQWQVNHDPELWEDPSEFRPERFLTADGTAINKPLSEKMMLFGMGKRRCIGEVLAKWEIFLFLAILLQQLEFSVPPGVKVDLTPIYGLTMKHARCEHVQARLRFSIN
# assay_remarks: Inhibition of CYP1A2 (unknown origin) at 3 uM
# Type: ADME
Known inhibition at 3 µM of a selection of molecules

O=C1COc2ccc(N3CCOC[C@H]3c3ccccc3)cc2N1 = < 10%

Note: attention shifts to another entry.
The recorded inhibition at 3 µM for C[C@@H]1CN(c2ccc3c(n2)NC(=O)CO3)[C@H](c2ccccc2)CO1 is < 20%

----------
# system_name: UniProt P06401
# assay_remarks: Displacement of [3H]-progesterone from recombinant human His-tagged PR-b after 4 hrs by liquid scintillation counting
pIC50: −log10 of the molar value.
measurement_type: pIC50

The recorded pIC50 for C[C@@H]1CN(c2ccc3c(n2)NC(=O)CO3)[C@H](c2ccccc2)CO1 is < 5.00

----------
IC50 tested on Mineralocorticoid receptor (Homo sapiens): recorded values
Sequence (P08235 whole entry): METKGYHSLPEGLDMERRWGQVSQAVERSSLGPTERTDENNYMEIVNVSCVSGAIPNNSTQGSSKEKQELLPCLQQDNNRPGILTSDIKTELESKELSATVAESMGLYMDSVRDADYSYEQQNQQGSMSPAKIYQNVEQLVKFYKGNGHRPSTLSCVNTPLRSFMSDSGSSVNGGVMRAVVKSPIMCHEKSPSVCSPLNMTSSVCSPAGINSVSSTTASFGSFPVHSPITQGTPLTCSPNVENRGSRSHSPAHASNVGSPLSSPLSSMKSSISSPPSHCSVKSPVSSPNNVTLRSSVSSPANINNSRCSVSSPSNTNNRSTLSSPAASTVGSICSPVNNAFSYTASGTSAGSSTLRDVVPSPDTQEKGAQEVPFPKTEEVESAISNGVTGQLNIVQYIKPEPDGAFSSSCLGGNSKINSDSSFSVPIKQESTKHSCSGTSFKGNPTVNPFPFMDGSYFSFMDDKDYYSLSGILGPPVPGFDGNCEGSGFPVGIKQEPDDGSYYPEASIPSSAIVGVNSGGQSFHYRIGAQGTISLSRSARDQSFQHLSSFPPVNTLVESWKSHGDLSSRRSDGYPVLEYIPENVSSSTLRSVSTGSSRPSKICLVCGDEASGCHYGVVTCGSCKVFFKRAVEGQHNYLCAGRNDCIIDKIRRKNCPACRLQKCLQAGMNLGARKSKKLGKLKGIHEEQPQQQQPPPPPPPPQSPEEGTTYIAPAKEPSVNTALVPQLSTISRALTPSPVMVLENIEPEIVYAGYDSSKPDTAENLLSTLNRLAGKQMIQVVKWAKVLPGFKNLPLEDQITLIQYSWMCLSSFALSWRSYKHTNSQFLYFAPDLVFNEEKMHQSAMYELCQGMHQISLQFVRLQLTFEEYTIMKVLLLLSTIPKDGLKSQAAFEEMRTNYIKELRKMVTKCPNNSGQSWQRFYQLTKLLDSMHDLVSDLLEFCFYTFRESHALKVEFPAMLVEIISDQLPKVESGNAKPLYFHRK
Report the figure in nM without appending any unit label.

Recorded IC50, per entry:
C[C@@H]1CN(c2ncc3c(n2)NC(=O)CO3)[C@H](c2ccccc2)CO1 = 113
COC[C@@H]1CN(c2ccc3c(n2)NC(=O)CO3)[C@H](c2ccccc2)CO1 = 276
CC1(C)CN(c2ccc3c(n2)NC(=O)CO3)[C@H](c2ccccc2)CO1 = 86
O=C1COc2ccc(N3CCOC[C@H]3c3ccccc3)nc2N1 = 1180
C[C@@H]1CN(c2cnc3c(c2)NC(=O)CO3)[C@H](c2ccccc2)CO1 = 2220

Case C[C@@H]1CN(c2cc3c(cn2)OCC(=O)N3)[C@H](c2ccccc2)CO1 , Mineralocorticoid receptor (Homo sapiens), IC50 recorded as 109

Case C[C@@H]1CN(c2ccc3c(c2)NC(=O)CO3)[C@H](c2ccccc2)CO1 , Mineralocorticoid receptor (Homo sapiens), IC50 recorded as 13

Case N#CC[C@@H]1CN(c2ccc3c(n2)NC(=O)CO3)[C@H](c2ccccc2)CO1 , Mineralocorticoid receptor (Homo sapiens), IC50 recorded as 56

Case O=C1COc2ccc(N3CCOC[C@H]3c3ccccc3)cc2N1 , Mineralocorticoid receptor (Homo sapiens), IC50 recorded as 401

Case C[C@@H]1CN(c2ccc3c(n2)NC(=O)CO3)[C@H](c2ccccc2F)CO1 , Mineralocorticoid receptor (Homo sapiens), IC50 recorded as 13
